# experiment summary: stimulators of nuclear beta-catenin in C2C12, primary screen, imaging, WNT3A-conditioned medium, mouse C2C12, NPC library (AID 1117326); further: reference of the scale not given here
# test parameters: at 10 µM
The source made the active and inactive calls. No stated cut-off is given here; in the data, active means nuclear beta-catenin stimulation mostly above about 4.2% (no sharp cut-off); inactive means mostly below about 10%.
Please state which outcome applies, choosing from true = active, false = inactive

Below are worked cases with known answers.
> print(dat)
                                   compound  label.value
1              CCCC(=O)Nc1ccc(O)c(C(C)=O)c1        false
2  CC1COc2c(N3CCN(C)CC3)c(F)cc3c(=O)c(C(=O)O)cn1c23 (configuration not stated)        false
3          [O-][n+]1ccccc1SSc1cccc[n+]1[O-]         true
4                             N=C(N)n1cccn1        false
5                               N#CCC(=O)NN        false
6                        Cc1ncc(CO)c(CN)c1O        false

Ask: Just curious, what result did COc1cc(OC)nc(O[C@H](C(=O)O)C(OC)(c2ccccc2)c2ccccc2)n1 get here?
Reply: false

Data provenance is PubChem BioAssay.
